- EXPERIMENTAL TARGET: mouse Epac2 (Mus musculus)
- Sequence (Q9EQZ6 1-1011): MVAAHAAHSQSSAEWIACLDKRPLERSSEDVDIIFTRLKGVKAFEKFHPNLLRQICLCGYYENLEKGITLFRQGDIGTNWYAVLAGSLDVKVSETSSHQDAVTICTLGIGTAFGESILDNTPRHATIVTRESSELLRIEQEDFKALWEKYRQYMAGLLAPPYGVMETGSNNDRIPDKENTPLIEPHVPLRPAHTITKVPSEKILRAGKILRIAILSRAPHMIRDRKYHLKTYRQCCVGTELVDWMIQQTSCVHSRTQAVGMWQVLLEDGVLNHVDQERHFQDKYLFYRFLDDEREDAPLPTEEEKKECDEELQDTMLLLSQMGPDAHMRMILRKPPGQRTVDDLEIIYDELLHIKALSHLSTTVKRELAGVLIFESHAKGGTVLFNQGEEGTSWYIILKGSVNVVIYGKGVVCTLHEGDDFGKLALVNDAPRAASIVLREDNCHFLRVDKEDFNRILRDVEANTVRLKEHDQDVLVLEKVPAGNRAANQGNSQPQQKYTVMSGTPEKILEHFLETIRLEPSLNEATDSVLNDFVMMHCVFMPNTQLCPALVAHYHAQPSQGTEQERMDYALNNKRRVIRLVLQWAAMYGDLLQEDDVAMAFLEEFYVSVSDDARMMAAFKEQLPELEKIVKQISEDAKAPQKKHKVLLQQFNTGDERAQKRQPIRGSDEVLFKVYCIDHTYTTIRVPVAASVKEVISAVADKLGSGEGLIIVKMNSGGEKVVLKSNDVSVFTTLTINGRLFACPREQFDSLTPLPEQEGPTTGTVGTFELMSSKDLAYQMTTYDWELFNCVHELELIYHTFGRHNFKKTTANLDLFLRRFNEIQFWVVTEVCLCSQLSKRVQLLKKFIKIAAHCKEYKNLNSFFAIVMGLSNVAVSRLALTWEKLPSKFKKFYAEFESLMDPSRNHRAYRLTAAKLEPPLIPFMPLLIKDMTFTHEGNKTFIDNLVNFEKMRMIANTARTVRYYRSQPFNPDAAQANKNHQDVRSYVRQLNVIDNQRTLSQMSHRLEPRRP
- ASSAY METHOD TEXT: Sulfonylurea binding experiment with tritium-labeled glibenclamide in COS-1 cells transformed with mouse Epac2 expression vector
pIC50: −log10 of the molar value.
QUANTITY: pIC50

[a] COc1ccc(Cl)cc1C(=O)NCCc1ccc(S(=O)(=O)NC(=O)NC2CCCCC2)cc1 [glibenclamide]
[b] CCCCNC(=O)NS(=O)(=O)c1ccc(C)cc1 [tolbutamide]
INPUT: Would you kindly point out which of a and b has the smaller pIC50 figure? The response must carry the label of the picked entry.
OUTPUT: b

---

- EXPERIMENTAL TARGET: fluorescent-labeled mouse Epac2 (Mus musculus)
- ASSAY METHOD TEXT: FRET dynamic analysis of fluorescent-labeled mouse Epac2 in COS-1 cells
- Assay type: cell-based
- Parameters: expressed in transfected cells; host or cells: COS-1 cells (A1)
- CONDITION DESCRIPTION: COS-1 cells that did not express SUR1, in the presence of SU agent
QUANTITY: change in R/R0 value (FRET)

Solved cases below.
# COMPOUND, change in R/R0 value (FRET)
data = [
    ("Cc1cnc(C(=O)NCCc2ccc(S(=O)(=O)NC(=O)NC3CCCCC3)cc2)cn1 [glipizide]", "decrease in R/R0"),
    ("CC(=O)c1ccc(S(=O)(=O)NC(=O)NC2CCCCC2)cc1 [acetohexamide]", "decrease in R/R0"),
    ("CCCNC(=O)NS(=O)(=O)c1ccc(Cl)cc1 [chlorpropamide]", "decrease in R/R0"),
    ("CCCCNC(=O)NS(=O)(=O)c1ccc(C)cc1 [tolbutamide]", "decrease in R/R0"),
]

Recorded change in R/R0 value (FRET) (compound COc1ccc(Cl)cc1C(=O)NCCc1ccc(S(=O)(=O)NC(=O)NC2CCCCC2)cc1 [glibenclamide] ): decrease in R/R0

Recorded change in R/R0 value (FRET) (compound Cc1ccc(S(=O)(=O)NC(=O)NN2CC3CCCC3C2)cc1 (stereo not shown) [gliclazide] ): no change in R/R0 value

Recorded change in R/R0 value (FRET) (compound CC(C)[C@H]1CC[C@H](C(=O)N[C@H](Cc2ccccc2)C(=O)O)CC1 [nateglinide] ): no change in R/R0 value
